pIC50: −log10 of the molar value.
Endpoint: pIC50. System: UniProtKB P12931. Items follow.
Sequence (P12931 2-536 limits assumed): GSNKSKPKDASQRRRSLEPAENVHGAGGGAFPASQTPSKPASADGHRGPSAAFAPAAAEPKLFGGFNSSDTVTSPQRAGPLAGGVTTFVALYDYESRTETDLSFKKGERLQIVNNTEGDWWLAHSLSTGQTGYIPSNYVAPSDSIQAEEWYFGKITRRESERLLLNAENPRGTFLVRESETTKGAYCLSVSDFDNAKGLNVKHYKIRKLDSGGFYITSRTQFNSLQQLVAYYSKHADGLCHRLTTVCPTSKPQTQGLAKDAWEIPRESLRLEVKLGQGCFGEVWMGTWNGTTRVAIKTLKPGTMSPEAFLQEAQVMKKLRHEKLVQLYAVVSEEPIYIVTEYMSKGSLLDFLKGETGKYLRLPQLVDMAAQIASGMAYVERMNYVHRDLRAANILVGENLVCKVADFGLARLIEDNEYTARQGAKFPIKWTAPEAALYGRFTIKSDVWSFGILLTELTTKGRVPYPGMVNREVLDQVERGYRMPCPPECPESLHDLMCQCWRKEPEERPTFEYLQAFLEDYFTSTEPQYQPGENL
observable: pIC50

compound_structure: NS(=O)(=O)c1cccc(Nc2nc(N3CCN(CCO)CC3)nc3nc[nH]c23)c1
pIC50: 6.47

P. Clc1ccc(Nc2nc(N3CCOCC3)nc3nc[nH]c23)cc1
Q. OCCN1CCN(c2nc(Nc3ccccc3)c3nc[nH]c3n2)CC1
Request: Please indicate which entry, P or Q , has the lower recorded pIC50 value. Respond with the label that goes with your answer.
Response: Q
